The measurements presented in this section are drawn from ChEMBL document CHEMBL1151466.

Assay: Apparent clearance with respect to bioavailability in Vietnamese human
Format: ADME, organism-based
Conditions: in vivo
RESULT TYPE: CL/F
Form entry: enter the amount, then its unit.

# input I'd like to know its CL/F. The molecule in question is Clc1ccc2c(N3CCN(CCCN4CCN(c5ccnc6cc(Cl)ccc56)CC4)CC3)ccnc2c1
# output 16.2 mL/min/kg

----------
Assay: AUC (0 to infinity) in Paua New Guinean children with uncomplicated malaria at 20 mg/kg daily for 3 days
Type: ADME, organism-based
Set-up: time infinity, dose 20 mg/kg
Settings: human, plasma
RESULT TYPE: AUC(0-inf) (µM·h)
Express the result in µM·h but write the number alone.

# input I'd like to know its AUC(0-inf). The molecule in question is Clc1ccc2c(N3CCN(CCCN4CCN(c5ccnc6cc(Cl)ccc56)CC4)CC3)ccnc2c1 [PIPERAQUINE]
# output 87.4

----------
Assay: AUC (0 to infinity) in Paua New Guinean children with uncomplicated malaria
Type: ADME, organism-based
Parameters: time infinity
Conditions: human, plasma
RESULT TYPE: AUC(0-inf) (µM·h)
Express the result in µM·h but write the number alone.

# input I'd like to know its AUC(0-inf). The compound in question is CCNCCCC(C)Nc1ccnc2cc(Cl)ccc12 (stereo unspecified) [DESETHYLCHLOROQUINE]
# output 98.5

----------
Assay: Volume of distribution at steady state with respect to bioavailability in Cambodian children with malaria
Assay type: ADME, organism-based
Conditions: human, in vivo; read-out: Vc/F
RESULT TYPE: Vd/F

# input I'd like to know its Vd/F. The molecule in question is Clc1ccc2c(N3CCN(CCCN4CCN(c5ccnc6cc(Cl)ccc56)CC4)CC3)ccnc2c1 [PIPERAQUINE]
# output 614 L/kg

----------
Assay: AUC (0 to 42 days) in Paua New Guinean children with uncomplicated malaria at 10 mg/kg daily for 3 days
Assay type: ADME, organism-based
Parameters: time < 1008 hr, dose 10 mg/kg
Conditions: human, plasma
RESULT TYPE: AUC at 1008 h (µM·h)
Express the result in µM·h but write the number alone.

# input I'd like to know its AUC at 1008 h. The molecule in question is CCN(CC)CCCC(C)Nc1ccnc2cc(Cl)ccc12 (stereo unspecified)
# output 117

----------
Test: Apparent clearance with respect to bioavailability in Paua New Guinean children with uncomplicated malaria at 20 mg/kg daily for 3 days
Type: ADME, organism-based
Settings: human, in vivo
RESULT TYPE: CL/F (mL/min/kg)
Express the result in mL/min/kg but write the number alone.

# input I'd like to know its CL/F. The molecule in question is Clc1ccc2c(N3CCN(CCCN4CCN(c5ccnc6cc(Cl)ccc56)CC4)CC3)ccnc2c1
# output 14.2
